Test system: MDA-MB-435 melanoma
assay.summary: NCI-60 one-dose screen, 48 h
experimental.setup: 10 µM
The panel holds about 83,000 compounds, 20% with a hit somewhere; the sample as a whole holds those more often. Calls of active or inactive are those of the source. The calls were made as follows: active = growth percent below 10; inactive = the rest.
Outcome codes: active, inactive

1) COc1ccc2nc(Cl)c(Cn3nnc(Cc4ccccc4)n3)cc2c1 ... inactive
2) COc1cc2nc(SCC(=O)Nc3cc(OC)c(OC)c(OC)c3)n(Cc3ccccc3)c(=O)c2cc1OC ... inactive
3) COc1ccc2nc(-c3ccc(Cl)cc3)cc(-c3nnc(SC/C(=N\O)c4ccccc4)n3-c3ccccc3)c2c1 ... inactive
4) CN1CCN(C2=Nc3ccccc3Oc3ccc(Cl)cc32)CC1 ... inactive
5) CC(C)(C)OC(=O)CN1CCc2c(sc3ncnc(N/N=C/c4ccccc4Br)c23)C1 ... inactive
6) CC(=O)Nc1ccc(S(=O)(=O)c2ccnc3cc(Cl)ccc23)cc1 ... inactive
7) Cc1c2cnccc2c(C)c2c1c1cc(O)ccc1n2C(C)C ... active
8) CC(C)c1ccc(C(C)C(=O)N(CC2=C(C(C)c3ccccn3)c3ccccc3C2)C(C)C)cc1 (configuration not stated) ... inactive
9) COc1cc2c3c(n(C4CCN(C)CC4)c(=O)c2cc1OC)-c1cc2c(cc1C3=O)OCO2 ... inactive
10) Cc1ccc(NCCNCC(C)(C)O)c2c(=O)c3ccc(Cl)cc3sc12 ... active
11) Oc1ccc(/C=N/N=C2c3ccccc3-c3ccccc32)c(O)c1 ... inactive
12) O=C(CCCCNC(=O)c1nc(-c2ccccc2)n(-c2ccccc2)n1)NO ... inactive
13) COc1ccc(-c2nnc(SCC(=O)Nc3ccc(C(=O)/C=C/c4ccccc4)cc3)n2-c2ccccc2)cc1OC ... inactive
14) Clc1ccc2c(c1)C(N1CCNCC1)=Nc1ccccc1O2 ... inactive
15) COc1cc(-c2nn(-c3cccc(NC(=O)CN4CCOCC4)c3)cc2-c2cccnc2)ccc1Cl ... active
16) CN1CCN(CC(=O)Nc2cccc(-n3cc(-c4ccncc4)c(-c4ccc(Cl)c(O)c4)n3)c2)CC1 ... active
17) CN1C(C(=O)Nc2ccccn2)=C(O)c2sc(Cl)cc2S1(=O)=O ... inactive
18) O=C(Nc1ccc(NS(=O)(=O)c2ccc(F)cc2)cc1)C12CC3CC(CC(C3)C1)C2 ... inactive
19) Cc1cc(CC(C)CC(C)(C)C)n(O)c(=O)c1 (configuration not stated) (tested in a mixture with another compound) ... inactive
20) CC1C(=NC(=O)c2cnccn2)C(C)C(c2ccc(Cl)cc2)NC1c1ccncc1 (configuration not stated) ... inactive
21) CC(C)c1cc(N=O)cc(C(C)C)c1O ... inactive
22) COc1cc2cc(Oc3ccc(NC(=O)Nc4cccc(C(F)(F)F)c4)cc3)c(C)nc2cc1OC ... active
23) Nc1ccn(Cc2nnc(CCC(=O)c3nc4ccccc4[nH]3)o2)c(=O)n1 ... inactive
24) Nc1ncc(-c2cnn(C3CCNCC3)c2)cc1-c1nc2ccccc2o1 ... active
25) O=C(COc1cccc(/C=C2\CSc3ccccc3C2=O)c1)c1ccc(Cl)cc1 ... active
26) Cc1c(Cl)cccc1NC(=O)CCCl ... inactive
27) Cc1ccc(/C=C/C(=O)C(=O)/C=C/c2ccc(C)cc2)cc1 ... inactive
28) COc1ccc(/C=C2\CCCC3=C2NC(N)=NC3c2ccc(OC)cc2)cc1 (configuration not stated) ... inactive
29) CCCCN1C(=O)CC(SC2CC(=O)N(CCCC)C2=O)C1=O (configuration not stated) ... inactive
30) C=CCn1c(SCC(=O)Nc2ccc(C(=O)/C=C/c3ccc(Cl)cc3)cc2)nnc1-c1cc(-c2ccccc2)nc2ccccc12 ... inactive
31) Cc1c2c[n+](C(C)C)ccc2c(C)c2c1[nH]c1ccccc12 ... inactive
32) c1cncc(-c2csc(-c3c[nH]c4ccccc34)n2)c1 ... inactive
